target: PAD2 (Homo sapiens, UniProt Q9Y2J8); experiment: Citrullination of synthetic peptides by recombinant human PAD2 (MALDI-TOF and ESI-Q-TOF mass spectrometry); type: biochemical; set-up: His6; made in house; settings: share of peptide still unconverted (Arg)
Sequence (Q9Y2J8 whole entry): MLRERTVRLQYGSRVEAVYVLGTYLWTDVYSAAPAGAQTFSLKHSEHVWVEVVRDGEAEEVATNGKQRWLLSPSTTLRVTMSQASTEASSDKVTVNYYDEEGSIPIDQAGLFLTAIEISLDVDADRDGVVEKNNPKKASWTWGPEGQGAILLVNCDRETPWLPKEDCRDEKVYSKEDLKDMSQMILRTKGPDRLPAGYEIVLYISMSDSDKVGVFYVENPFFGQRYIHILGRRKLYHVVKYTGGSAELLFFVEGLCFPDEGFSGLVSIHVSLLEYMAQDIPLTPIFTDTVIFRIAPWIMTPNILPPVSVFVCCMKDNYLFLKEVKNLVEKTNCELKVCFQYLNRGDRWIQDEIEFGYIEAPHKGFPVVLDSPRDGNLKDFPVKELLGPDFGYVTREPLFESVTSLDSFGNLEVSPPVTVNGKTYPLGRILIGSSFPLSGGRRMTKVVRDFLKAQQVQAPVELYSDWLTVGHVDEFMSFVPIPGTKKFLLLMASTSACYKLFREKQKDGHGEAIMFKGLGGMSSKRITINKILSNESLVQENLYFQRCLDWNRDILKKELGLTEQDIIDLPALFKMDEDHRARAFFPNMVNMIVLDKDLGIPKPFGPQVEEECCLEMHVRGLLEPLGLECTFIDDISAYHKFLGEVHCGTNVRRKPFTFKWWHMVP
Reported Property: PAD2 conversion: Arg (%)

Substance | Observed Result
D-S-Q-F-A-F-R-G-A-S-A-S-D (DSQFAFRGASASD) [Peptide 0308-29, reference compound] | 68
DSEGTWRKGPEAD [SEQ ID NO: 8] | 15
DDYSSSRDGYGGS [SEQ ID NO: 1] | 88
DSSEELRGGGKSD [SEQ ID NO: 9] | 43
DSRFYWRGGGKSD [SEQ ID NO: 10] | 14
IGSRGDRSGFGKF [SEQ ID NO: 6] | 1
DGYGGSRDSYSSS [SEQ ID NO: 3] | 54
GGYSGDRSGGGYG [SEQ ID NO: 2] | 33
DSYRSWRDGYYSD [SEQ ID NO: 4] | 16
IEIMTDRGSGKKR [SEQ ID NO: 5] | 6
IEIITDRQSGKKR [SEQ ID NO: 7] | 5
